- STUDY TARGET: HLA-A*33:01
- RUN DESCRIPTION: IEDB peptide-MHC binding, purified MHC/competitive/radioactivity; filed as Kd, often an IC50 or EC50 that approximates it; bounds were set here for any values at or beyond the usual limits of such assays
- REPORTED CONDITIONS: source organism: Vaccinia virus WR
Measured Kd accompanies every entry in the list below.

Consider the reported Kd for these sequences:
SVPLPCQLMY ≥ 53.1 µM
SMDVLAEKK ≥ 77.7 µM
VTGFMEEEIK ≥ 33.9 µM
MMNRDKIPIY ≥ 70 µM
MIIGHIGHHY ≥ 55.4 µM

query: What Kd appears in the records for this sequence with HLA-A*33:01? `SIMETIDPVY`
result: ≥ 36.6 µM

query: Also `ITLKIIETY` ?
result: ≥ 77.7 µM

query: Then this sequence: `ISFKSINKVY`
result: ≥ 63.3 µM

query: Queued: `EIKDRILSY`
result: ≥ 20.5 µM

query: Cool, now `FSTSAADIK`
result: ≥ 28.9 µM

###

- STUDY TARGET: HLA-A*33:01
- RUN DESCRIPTION: IEDB peptide-MHC binding, purified MHC/competitive/radioactivity; filed as Kd, often an IC50 or EC50 that approximates it; bounds were set here for any values at or beyond the usual limits of such assays
- REPORTED CONDITIONS: source organism: Vaccinia virus WR
Mark Yes for Kd under 2 µM, No if at or over.

Some solved entries appear below for comparison.
IIKSDHEFVK No
NLDPDNKMSY No

query: hey, is Kd for `LLGDSDSVAK` lower than 2 µM or not?
result: No

query: Entry to check: `SFKSINKVY`
result: No

query: Another sequence to check: `FMEMFFDYNK`
result: No

query: Then this sequence: `TQSVLCVKK`
result: No

query: Let us now turn to `LMIFISSFLL`
result: Yes

query: `LTNKHCLNNY` ?
result: No

###

- STUDY TARGET: HLA-A*33:01
- RUN DESCRIPTION: IEDB peptide-MHC binding, purified MHC/competitive/radioactivity; filed as Kd, often an IC50 or EC50 that approximates it; bounds were set here for any values at or beyond the usual limits of such assays
- REPORTED CONDITIONS: source organism: Vaccinia virus WR
OBSERVABLE: log10 of Kd (log10 of the value in µM)
A value of 2 here means Kd of 100 in µM, since values are log10.

Below, each entry is followed by its recorded log10 of Kd result.
FLKSGAVVK 1.29
MSHVKSVTK 0.29
IVTSLAIKNY 0.75

query: What does the record list as log10 of Kd for `LAIKNYYRK` ?
result: 0.16

query: Now the sequence `VSAKQLRTR`
result: 1.13

query: Next sequence up: `QISRVNDLNR`
result: -0.04

query: Also check `TISSESLVY`
result: 0.74

###

- STUDY TARGET: HLA-A*33:01
- RUN DESCRIPTION: IEDB peptide-MHC binding, purified MHC/competitive/radioactivity; filed as Kd, often an IC50 or EC50 that approximates it; bounds were set here for any values at or beyond the usual limits of such assays
- REPORTED CONDITIONS: source organism: Vaccinia virus WR
pKd: −log10 of the molar value.
OBSERVABLE: pKd

Recorded pKd, per entry:
CTDESRDRK ≤ 4.11
FVDINRNNK ≤ 4.33

Continue with the next sequence.
query: If you can, please state the reported pKd value of `SFSLESDSIK` .
result: ≤ 4.15
